Each recorded value in this set is attributed to patent US20250122225A1.

Reported values of pKi for individual entries
target: human α-thrombin (Homo sapiens, UniProt P00734)
pKi: −log10 of the molar value. Structures can show the parent of a compound that is named as a salt.

Please review the entries below; each comes with its answer.
- CC(C)[C@@H](Nc1ncc2n(c1=O)[C@H](C(=O)N[C@H](C)c1cc3c(s1)CNC3)CC2)c1ccccc1 [Compound 274, trifluoroacetate]: 5.60 to 6.30
- [2H]C([2H])([2H])c1nc(NCc2cc(C)cc(F)c2)c(=O)n2c1CC[C@H]2C(=O)NCc1ccc(N)nc1C [Compound 218, trifluoroacetate]: > 6.30
- CC[C@@H](Nc1ncc2n(c1=O)[C@H](C(=O)NCc1cc3c(s1)CNC3)CC2)c1cccc(-c2ccccc2)c1 [Compound 267, trifluoroacetate]: 5.60 to 6.30
- [2H]C([2H])([2H])c1nc(N)ccc1CNC(=O)[C@@H]1CCc2cnc(NCc3cc(C)cc(OC)c3)c(=O)n21: > 6.30
- Cc1cc(F)cc(CNc2ncc3n(c2=O)[C@H](C(=O)NCc2ccc(CN)cc2C)CC3)c1 [Compound 205, trifluoroacetate]: 5.00 to 5.60

Next, consider the following molecule.
Q: Please state recorded pKi (tested on human α-thrombin (Homo sapiens, UniProt P00734)) of Cc1cc2[nH]c(CNC(=O)[C@@H]3C[C@H](Cc4ccccc4)c4cnc(NC5CCC5)c(=O)n43)cc2cn1
Result: 4.60 to 5.00

* * *

Counter-ions that a name gives are not always drawn.
The reader will find Ki measurements below, all made with UniProtKB O00187.
Sequence (O00187 445-686 limits assumed): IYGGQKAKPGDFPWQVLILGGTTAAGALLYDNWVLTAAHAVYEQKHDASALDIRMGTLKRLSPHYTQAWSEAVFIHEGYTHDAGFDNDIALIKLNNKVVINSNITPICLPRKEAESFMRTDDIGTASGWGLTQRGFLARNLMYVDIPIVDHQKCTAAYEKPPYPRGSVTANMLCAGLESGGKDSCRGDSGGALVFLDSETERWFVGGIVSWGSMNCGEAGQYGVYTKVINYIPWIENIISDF
Sequence (O00187 287-444 partner limits assumed): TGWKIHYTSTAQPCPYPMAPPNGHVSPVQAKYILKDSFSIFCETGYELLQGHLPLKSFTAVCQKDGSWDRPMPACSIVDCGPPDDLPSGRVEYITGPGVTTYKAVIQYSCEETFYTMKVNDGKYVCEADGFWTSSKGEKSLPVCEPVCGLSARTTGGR

* Cc1cc(F)cc(CNc2nc(C(C)C)c3n(c2=O)[C@H](C(=O)NCc2ccc(N)nc2C)CC3)c1 [Compound 211, trifluoroacetate] | < 500 nM
* CC(C)(C)[C@@H](Nc1ncc2n(c1=O)[C@H](C(=O)NCc1cc3c(s1)CNC3)CC2)c1ccccc1 [Compound 264, trifluoroacetate] | < 500 nM

Consider now this further compound.
Q: # Ki lookup, item Cc1cc(C)cc(CNc2nc(Cl)c3n(c2=O)[C@H](C(=O)NCc2cc4c(s2)CNC4)CC3)c1
Result: < 500 nM

* * *

For human α-thrombin (Homo sapiens), measured pKi is reported for the entries below.
pKi: −log10 of the molar value. Counter-ions that a name gives are not always drawn.

Solved cases (8 shown):
- O=C(NCc1cc2c(s1)CNC2)[C@@H]1CCc2c(Cl)nc(NCc3ccccc3)c(=O)n21: 5.00 to 5.60
- Cc1nc(N)ccc1CNC(=O)[C@@H]1CCc2c(Cl)nc(NCc3cccnc3)c(=O)n21: 5.60 to 6.30
- Cc1ccc(F)c(CNc2ncc3n(c2=O)[C@H](C(=O)NCc2ccc(N)nc2C)CC3)c1: > 6.30
- C[C@@H]1C[C@@H](C(=O)NCc2cc3cnccc3[nH]2)n2c1c(Cl)nc(NCc1ccccc1)c2=O [Compound 230, trifluoroacetate]: 5.60 to 6.30
- Cc1nc(N)ccc1CNC(=O)[C@@H]1CCc2cnc(NCc3cccc(CO)c3)c(=O)n21: > 6.30
- Cc1nc(N)ccc1CNC(=O)[C@@H]1CCc2c(Cl)nc(NCC3CCOC3)c(=O)n21 (some centres unmarked): 4.60 to 5.00
- Cc1cc(F)cc(CNc2nc(Cl)c3n(c2=O)[C@H](C(=O)NCc2ccc(N)nc2C)CC3)c1 [Compound 212, trifluoroacetate]: 5.00 to 5.60
- Cc1cc(F)cc(CNc2nc(-c3cnn(C(F)F)c3)c3n(c2=O)[C@H](C(=O)NCc2ccc(N)nc2)CC3)c1 [Compound 216, trifluoroacetate]: < 4.60

Q: Under human α-thrombin (Homo sapiens): pKi value of O=C(NCc1cc2c(s1)CNC2)[C@@H]1CCc2cnc(NC3CCc4ccccc43)c(=O)n21 (some centres unmarked) ?
Result: > 6.30

Q: Could you share what pKi was measured for Cc1cc(C)cc(CNc2ncc3n(c2=O)[C@H](C(=O)NCc2cc4cnc(C)cc4[nH]2)CC3)c1 , tested on human α-thrombin (Homo sapiens)?
Result: 4.60 to 5.00

Q: Provide the documented pKi with human α-thrombin (Homo sapiens) as the system for CC[C@@H](Nc1ncc2n(c1=O)[C@H](C(=O)N[C@@H](C)c1cc3c(s1)CNC3)CC2)c1ccccc1
Result: 4.60 to 5.00

Q: Fill in the recorded pKi for this compound, with human α-thrombin (Homo sapiens) as test system: Cc1cc(F)cc(CNc2ncc3n(c2=O)[C@H](C(=O)NCc2ccc(N)c(Cl)c2)CC3)c1
Result: > 6.30

Q: # value lookup — system human α-thrombin (Homo sapiens), readout pKi, item Cc1cc(C)cc(CNc2ncc3n(c2=O)[C@H](C(=O)NCc2ccccn2)CC3)c1 [Compound 40, trifluoroacetate]
Result: < 4.60

Q: Request body: readout pKi, system human α-thrombin (Homo sapiens), query Cc1nc(N)ccc1CNC(=O)[C@@H]1CCc2cnc(NCc3cccc(S(C)(=O)=O)c3)c(=O)n21 [Compound 99, trifluoroacetate] . Return the value.
Result: > 6.30

* * *

pKi: −log10 of the molar value. Where a name gives a salt, the structure may show the parent alone.
The reader will find pKi measurements below, all made with human α-thrombin (Homo sapiens).

• Cc1cc2[nH]c(CNC(=O)[C@@H]3CCc4cnc(NCc5ccccc5)c(=O)n43)cc2cn1 = < 4.60

Q: Given the entry CC[C@H]1C[C@@H](C(=O)NCc2cc3c(s2)CNC3)n2c1c(Cl)nc(NCc1ccccc1)c2=O [Compound 158, hydrochloride] , report its measured pKi.
Result: 5.00 to 5.60

Q: Which pKi is listed for Cc1cc(C)cc(CNc2ncc3n(c2=O)[C@H](C(=O)NCc2cc4cnccc4[nH]2)C[C@@H]3C)c1 ?
Result: 5.00 to 5.60

Q: Tell me the measured pKi of Cc1ccc(CNc2ncc3n(c2=O)[C@H](C(=O)NCc2cc4cnccc4[nH]2)CC3)cc1C , please.
Result: 5.60 to 6.30

Q: Reported pKi for Cc1ccccc1CNc1ncc2n(c1=O)[C@H](C(=O)NCc1cc3cnccc3[nH]1)CC2 : what is it?
Result: 5.60 to 6.30

Q: Which pKi value belongs to Cc1ccccc1CNc1ncc2n(c1=O)[C@H](C(=O)NCc1cc3c(s1)CNC3)CC2 [Compound 286, trifluoroacetate] ?
Result: 5.60 to 6.30

Q: Looking for the measured pKi of COc1cc(F)cc(CNc2ncc3n(c2=O)[C@H](C(=O)NCc2ccc(N)nc2C)CC3)c1 [Compound 171, trifluoroacetate] , can you help?
Result: > 6.30

Q: Please look up its pKi: O=C(NCc1cc2c(s1)CNC2)[C@@H]1CCc2cnc(NCC3(c4ccccc4)CCC3)c(=O)n21 [Compound 271, trifluoroacetate]
Result: > 6.30

Q: Field request: pKi | item: Cc1ccc(C(F)(F)F)cc1CNc1ncc2n(c1=O)[C@H](C(=O)N[C@H](C)c1ccc(N)nc1)CC2 [Compound 197, trifluoroacetate]
Result: < 4.60

Q: Reported pKi for COc1cc(C)cc(CNc2ncc3n(c2=O)[C@H](C(=O)NCc2cc4cnccc4[nH]2)CC3)c1 : what is it?
Result: > 6.30

Q: Requested field: pKi. Item: Cc1cc(C)cc(CNc2ncc3n(c2=O)[C@H](C(=O)NCc2cc4cnccc4n2C)CC3)c1 [Compound 41, trifluoroacetate]
Result: 5.60 to 6.30

* * *

System: Lectin Pathway Activation in human serum
assay remarks: Lectin Pathway Activation (LPA) assay in human serum, mannan-coated ELISA plate, C4c detection
Type: biochemical
condition set: 1% human serum, read-out: LPA Functional Activity (IC50)
Structures can show the parent of a compound that is named as a salt.
readout type: IC50

* Cc1nc(N)ccc1CNC(=O)[C@@H]1CCc2c(Cl)nc(NCc3ccccc3)c(=O)n21 [Compound 131] | < 50 nM
* COc1cc(C)cc(CNc2ncc3n(c2=O)[C@H](C(=O)N[C@H](C)c2ccc(N)nc2)CC3)c1 [Compound 194, trifluoroacetate] | < 50 nM

Q: Query: IC50; subject: O=C(NCc1cc2cnccc2[nH]1)[C@@H]1CCc2c(Cl)nc(NCc3cnccn3)c(=O)n21 [Compound 239]
Result: 50 to 500 nM

Q: What does the data say about its IC50? Entry: C[C@@H]1C[C@@H](C(=O)NCc2cc3cnccc3[nH]2)n2c1c(Cl)nc(NCc1ccccc1)c2=O [Compound 230, trifluoroacetate]
Result: 50 to 500 nM

Q: Given the entry Cc1cc(F)cc(CNc2ncc3n(c2=O)[C@H](C(=O)NCc2ccc(CN)cc2)CC3)c1 [Compound 181, trifluoroacetate] , report its measured IC50.
Result: 50 to 500 nM

* * *

target: human α-thrombin (Homo sapiens, UniProt P00734)
Structures can show the parent of a compound that is named as a salt.
readout type: Ki

Q: Test system human α-thrombin (Homo sapiens, UniProt P00734); read-out Ki; what value for Cc1cc(F)cc(CNc2ncc3n(c2=O)[C@H](C(=O)NCc2c(C)cc(CN)cc2C)CC3)c1 [Compound 206, trifluoroacetate] ?
Result: 10 to 25 µM
